system: T1, BRCA2OB (human, UniProt P51587 2665-3197)
T1 sequence: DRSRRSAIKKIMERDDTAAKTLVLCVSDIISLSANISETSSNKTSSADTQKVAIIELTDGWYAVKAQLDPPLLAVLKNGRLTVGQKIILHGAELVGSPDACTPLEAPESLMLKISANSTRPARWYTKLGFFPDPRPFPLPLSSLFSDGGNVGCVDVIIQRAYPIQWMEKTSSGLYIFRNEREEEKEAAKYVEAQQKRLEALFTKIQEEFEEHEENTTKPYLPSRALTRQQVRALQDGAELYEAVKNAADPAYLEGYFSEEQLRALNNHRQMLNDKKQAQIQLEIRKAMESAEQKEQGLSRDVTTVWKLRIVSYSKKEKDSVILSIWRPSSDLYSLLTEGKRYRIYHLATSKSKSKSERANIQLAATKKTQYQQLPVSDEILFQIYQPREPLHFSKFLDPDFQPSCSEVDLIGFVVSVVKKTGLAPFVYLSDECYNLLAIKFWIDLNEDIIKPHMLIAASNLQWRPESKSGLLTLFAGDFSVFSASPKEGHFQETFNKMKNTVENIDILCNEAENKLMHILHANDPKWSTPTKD
experiment-description: EMSA; 100 mM KCl; rough estimate, max protein 1 uM; EMSA: 10 nM probe, 50 mM Tris-HCl pH 7.5, 100 mM KCl, 2 mM b-ME, 10% glycerol, probe pre-incubated 37 C, gel 4 C (RAD51: +1 mM MgCl2, 2 mM ATP); smFRET: 50 mM Tris-HCl pH 7.9, 100 mM KCl, 20 mM NaCl, 1 mM DTT, 0.1 mg/ml BSA, 9% glycerol, 37 C
test-conditions: protein: recombinant; tags: N-MBP, C-6xHis; label: 5' 32P; intramolecular G4 (dynamic)
readout: Kd
I'd appreciate it if you included the unit after the number.

(Q) Quick check: Kd of GGTTAGGGTTAGGGTTAGGGTTAGGGTTAG (structured_DNA) [TelG5] ?
(A) 4.4 µM
